- Measured Target: PI3Kδ (Homo sapiens, UniProt O00329)
- Construct: The protein is full length and co-expressed with untagged PIK3R1; GST; purchased Invitrogen PV5274
- Sequence (O00329 whole entry): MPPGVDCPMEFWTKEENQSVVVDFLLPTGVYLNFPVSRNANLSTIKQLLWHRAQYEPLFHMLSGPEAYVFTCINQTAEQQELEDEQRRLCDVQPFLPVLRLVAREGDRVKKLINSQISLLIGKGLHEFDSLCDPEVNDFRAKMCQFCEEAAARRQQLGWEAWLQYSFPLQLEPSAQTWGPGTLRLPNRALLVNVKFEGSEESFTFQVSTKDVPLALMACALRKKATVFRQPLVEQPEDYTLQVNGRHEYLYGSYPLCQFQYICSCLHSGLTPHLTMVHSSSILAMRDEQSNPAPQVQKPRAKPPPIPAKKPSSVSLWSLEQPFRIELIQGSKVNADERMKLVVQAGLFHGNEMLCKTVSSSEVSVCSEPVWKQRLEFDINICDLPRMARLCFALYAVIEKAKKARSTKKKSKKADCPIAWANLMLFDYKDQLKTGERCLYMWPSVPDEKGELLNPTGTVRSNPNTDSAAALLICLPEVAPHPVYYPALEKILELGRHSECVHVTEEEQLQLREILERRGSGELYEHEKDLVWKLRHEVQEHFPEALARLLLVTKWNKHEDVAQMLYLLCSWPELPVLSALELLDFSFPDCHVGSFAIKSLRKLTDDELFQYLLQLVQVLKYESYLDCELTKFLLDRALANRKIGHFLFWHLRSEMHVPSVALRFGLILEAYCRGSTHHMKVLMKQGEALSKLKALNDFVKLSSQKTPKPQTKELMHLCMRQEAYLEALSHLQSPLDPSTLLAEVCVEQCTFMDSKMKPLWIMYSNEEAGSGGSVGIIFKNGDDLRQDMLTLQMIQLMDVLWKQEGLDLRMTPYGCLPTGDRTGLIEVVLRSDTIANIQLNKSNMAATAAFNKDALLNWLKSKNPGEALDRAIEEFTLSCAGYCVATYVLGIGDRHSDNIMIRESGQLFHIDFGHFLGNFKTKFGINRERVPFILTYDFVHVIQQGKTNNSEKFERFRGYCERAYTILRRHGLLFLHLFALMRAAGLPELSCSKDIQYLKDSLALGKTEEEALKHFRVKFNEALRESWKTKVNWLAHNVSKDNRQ
- Sequence (P27986 whole entry partner): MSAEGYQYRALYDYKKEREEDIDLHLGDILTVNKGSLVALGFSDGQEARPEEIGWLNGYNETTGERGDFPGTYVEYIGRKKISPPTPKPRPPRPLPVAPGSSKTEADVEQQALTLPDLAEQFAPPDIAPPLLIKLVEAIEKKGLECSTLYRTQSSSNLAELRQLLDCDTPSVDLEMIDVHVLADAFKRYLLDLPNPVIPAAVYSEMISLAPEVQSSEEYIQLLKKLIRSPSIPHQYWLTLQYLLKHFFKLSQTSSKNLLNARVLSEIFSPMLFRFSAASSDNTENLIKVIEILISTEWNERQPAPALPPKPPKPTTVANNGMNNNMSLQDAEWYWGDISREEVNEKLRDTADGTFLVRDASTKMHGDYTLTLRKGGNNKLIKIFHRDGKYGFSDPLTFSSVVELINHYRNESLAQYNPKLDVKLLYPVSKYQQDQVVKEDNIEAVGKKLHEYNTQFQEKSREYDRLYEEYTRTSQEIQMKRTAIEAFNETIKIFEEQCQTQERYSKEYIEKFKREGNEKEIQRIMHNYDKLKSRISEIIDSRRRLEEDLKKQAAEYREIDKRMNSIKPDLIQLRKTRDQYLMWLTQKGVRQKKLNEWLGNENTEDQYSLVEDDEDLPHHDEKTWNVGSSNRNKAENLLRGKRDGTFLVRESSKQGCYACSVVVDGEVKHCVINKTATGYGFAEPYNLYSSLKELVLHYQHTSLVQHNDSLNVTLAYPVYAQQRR
- Method: PI3Kδ inhibition, modified PIK3CD Adapta TR-FRET assay
- Format: biochemical
- Test Context: recombinant GST-tagged full length PIK3CD co-expressed with PIK3R1 (p85α); 2 μM ATP, 50 μM PIP2; read-out: PI3Kδ Inhibition (pIC50) (converted)
Readout: IC50 (nM)
Record the value in nM, omitting the unit from your answer.

Exercise: Reported IC50, molecule C[C@@H](c1ccc(Cl)cc1)N1C(=O)C2COCCN2c2nc(-c3cccc4[nH]ccc34)ncc21 (mixture of isomers) [Example 163] : ____
Solution: 31.6

Exercise: State the recorded IC50 for this entry: NC(=O)c1ccc(F)cc1CN1CC2COCCN2c2nc(-c3cccc4[nH]ccc34)ncc21 (stereo not shown) [Example 75]
Solution: 316

Exercise: Given the molecule CS(=O)(=O)c1ccc(CN2C(=O)C3COCCN3c3nc(-c4ccc5[nH]ncc5c4)ncc32)cc1 (stereo not shown) [Example 114] , what is its reported IC50?
Solution: 200

Exercise: Give its IC50 value. Item: CCc1nnc(CN2C[C@@H]3COCCN3c3nc(-n4ccc5cnccc54)ncc32)o1 [Example 180]
Solution: 398

Exercise: Query: IC50; subject: c1cnc(CN2CC3COCCN3c3nc(-c4cccc5[nH]ccc45)ncc32)nc1 (stereo not shown) [Example 164]
Solution: 79.4

Exercise: Any idea what its IC50 is? The molecule is Nc1ncc(-c2ncc3c(n2)N2CCOCC2CN3)cn1 (stereo not shown) [Example 1]
Solution: 31.6

Exercise: State the recorded IC50 for this entry: CS(=O)(=O)c1ccc(CN2C[C@@H]3COCCN3c3nc(-n4c(C(F)F)nc5ccccc54)ncc32)cc1 [Example 67]
Solution: 5.01

Exercise: What value of measured IC50 is listed for CS(=O)(=O)c1ccc(CN2C(=O)C3COCCN3c3nc(-c4cccc(N5CCCS5(=O)=O)c4)ncc32)cc1 (stereo not shown) [Example 132] ?
Solution: 6310

Exercise: Entry c1cc(-c2ncc3c(n2)N2CCOCC2CN3Cc2nnc(C3CC3)o2)c2cc[nH]c2c1 (stereo not shown) [Example 81] has what IC50?
Solution: 15.8

Exercise: Any idea what its IC50 is? The molecule is CCc1nnc(C(C)N2C[C@@H]3COCCN3c3nc(-c4cccc5[nH]ccc45)ncc32)o1 (stereo partly shown) [Example 178]
Solution: 1.58

Exercise: Requested field: IC50. Item: COc1cc(C#N)ccc1CN1CC2COCCN2c2nc(-c3cccc4[nH]ccc34)ncc21 (stereo not shown) [Example 47]
Solution: 158

Exercise: Give the measured IC50 of CNC(=O)Nc1ccc(-c2ncc3c(n2)N2CCOCC2C(=O)N3Cc2ccc(-n3cncn3)cc2)cc1 (stereo not shown) [Example 92] .
Solution: 2

Exercise: Return reported IC50; argument: CNC(=O)Nc1ccc(-c2ncc3c(n2)N2CCOCC2C(=O)N3[C@@H](C)c2ccc(Cl)cc2)cc1 (single isomer, unassigned) [Example 161]
Solution: 3.98

Exercise: Quick one: IC50 of CNC(=O)Nc1ccc(-c2ncc3c(n2)N2CCOCC2C(=O)N3CC2CC2(F)F)cc1 (stereo not shown) [Example 93] ?
Solution: 5.01

Exercise: What value of IC50 has been recorded for this entry: CNC(=O)Nc1ccc(-c2ncc3c(n2)N2CCOCC2C(=O)N3Cc2ccc(Cl)cc2)cc1 (stereo not shown) [Example 89]
Solution: 63.1

Exercise: Fill in: IC50 of CNC(=O)Nc1ccc(-c2ncc3c(n2)N2CCOCC2C(=O)N3Cc2ccc(S(C)(=O)=O)cc2Cl)cc1 (stereo not shown) [Example 95] is ___
Solution: 0.794

Exercise: // returns reported IC50 for input C[C@@H](c1ccc(Cl)cc1)N1C(=O)C2COCCN2c2nc(-c3cnc(N)nc3)ncc21 (mixture of isomers) [Example 162]
Solution: 6.31

Exercise: Name the reported IC50 value associated with the molecule CS(=O)(=O)c1ccc(CN2CC3COCCN3c3nc(-c4cccc5[nH]ncc45)ncc32)cc1 (stereo not shown) [Example 22]
Solution: 20

Exercise: Given the entry CC(C)Cc1nnc(C(C)N2C[C@@H]3COCCN3c3nc(-c4cccc(CO)c4)ncc32)o1 (stereo partly shown) [Example 176] , report its measured IC50.
Solution: 1.58

Exercise: Given CS(=O)(=O)c1ccc(CN2CC3COCCN3c3nc(-c4cccc5[nH]c(C(F)(F)F)cc45)ncc32)cc1 (stereo not shown) [Example 21] , state its recorded IC50.
Solution: 1260

Exercise: Consider the molecule shown here: CC(C)(O)CCN1C[C@@H]2COCCN2c2nc(-c3cccc(CO)c3)ncc21 [Example 171] What is its recorded IC50?
Solution: 3.16

Exercise: Field request: IC50 | item: COCc1cccc(-c2ncc3c(n2)N2CCOC[C@H]2CN3CC(=O)NCC2CCOCC2)c1 [Example 216]
Solution: 1000

Exercise: May I ask what IC50 has been recorded for CCc1cc(CN2C[C@@H]3COCCN3c3nc(-c4cccc5[nH]ccc45)ncc32)on1 [Example 188] ?
Solution: 39.8

Exercise: Give its IC50 value. Item: O=C1C2COCCN2c2nc(-c3cccc4[nH]ccc34)ncc2N1C1CCc2ccc(Cl)cc21 (stereo not shown) [Example 146]
Solution: 31.6

Exercise: Which value of IC50 has been reported for COc1ccc(CC(=O)N2CC3COCCN3c3nc(-c4cccc5[nH]ccc45)ncc32)cc1 (stereo not shown) [Example 20] in the records?
Solution: 501

Exercise: Consider the molecule shown here: O=C1C2COCCN2c2nc(-c3cn[nH]c3)ncc2N1[C@H]1CCc2ccccc21 (stereo partly shown) [Example 96] What is its recorded IC50?
Solution: 631

Exercise: Report IC50 for CC(C)(O)CCCN1C[C@@H]2COCCN2c2nc(-c3cccc4[nH]ccc34)ncc21 [Example 227] please.
Solution: 15.8

Exercise: So what does the record say about IC50 for CS(=O)(=O)c1ccc(CN2C(=O)C3COCCN3c3nc(-c4cccc(C(N)=O)c4)ncc32)cc1 (stereo not shown) [Example 113] ?
Solution: 501

Exercise: Given the molecule CNC(=O)Nc1ccc(-c2ncc3c(n2)N2CCOCC2C(=O)N3C2CCc3ccc(OC)cc32)cc1 (stereo not shown) [Example 148] , what is its reported IC50?
Solution: 3.98

Exercise: May I ask what IC50 has been recorded for c1cc(-c2ncc3c(n2)N2CCOC[C@H]2CN3CCC2OCCO2)c2cc[nH]c2c1 [Example 194] ?
Solution: 3.16
